The reader will find reported IC50 values listed item by item below.
biological target: LSD1 (Homo sapiens, UniProt O60341); construct: purchased Cayman Chemical Company 700120; assay: LSD1 histone demethylase assay (LSD1 Inhibitor Screening Assay Kit, Cayman); assay type: biochemical
Please reply with the bare figure in µM and do not write the unit itself.

compound: CC1CC(=NNC(=O)c2cccc(S(=O)(=O)N3CCN(C)CC3)c2)c2c(O)ccc(Cl)c21 (stereo in doubt) [SP-10054_Z]
measuredTarget: LSD1 (Homo sapiens, UniProt O60341)
IC50 (µM): 0.029

Alright, here's another compound for you.
Per the records, this compound ( CCN1CCN(S(=O)(=O)c2cccc(C(=O)NN=C3CCc4c(Cl)cc(C)c(O)c43)c2)CC1 (stereo in doubt) [SP-10047_Z] ) has IC50 equal to 0.426
